- experimental-protocol: Clearance in rat liver microsomes assessed per mg protein
- Type: ADME
- test-conditions: read-out: CLH
Measured microsomal CLint of individual entries
property-label: microsomal CLint

1) COc1ccc2c(OC[C@@H]3C[C@H]4C(=O)N(C)CCCC/C=C\[C@H]5C[C@]5(C(=O)NS(=O)(=O)C5(C)CC5)NC(=O)N34)cc(-c3nc(C(C)C)cs3)nc2c1C	> 150 µL/min/mg
2) COc1ccc2c(OC[C@@H]3C[C@H]4C(=O)N(C)CCCC/C=C\[C@H]5C[C@]5(C(=O)NS(=O)(=O)C5(C)CC5)NC(=O)N34)cc(-c3nc(C(C)C)cs3)nc2c1Cl	> 150 µL/min/mg
